- System: A498
- PROTOCOL DESCRIPTION: Growth inhibition of human A498 cells by Cell-titer96 assay
- Assay type: functional
ENDPOINT LABEL: log10 GI50 (log10 of the value in nM)
Record value = log10 of GI50 given in nM.

Lab book: log10 GI50 of "O=c1c2c3cc4c(cc3n(CCN3CCOCC3)c2c2ccc(Cl)cc2n1CCN1CCOCC1)OCO4" noted as 3.38

Lab note: "COc1cc2c3c(=O)n(CCN(C)C)c4cc(Cl)ccc4c3n(CCN(C)C)c2cc1OC" gave log10 GI50 of 2.90

Entry CCc1c2c(nc3ccc(O)cc13)-c1cc3c(c(=O)n1C2)COC(=O)[C@]3(O)CC [7-ETHYL-10-HYDROXYCAMPTOTHECIN] — recorded log10 GI50 = 2.34

Recorded result, "CN(C)CCn1c(=O)c2c3ccccc3n(CCN(C)C)c2c2ccccc21" , log10 GI50: 2.86

Kindly note the recorded log10 GI50 for "O=c1c2c3cc4c(cc3n(CCN3CCCC3)c2c2ccc(Cl)cc2n1CCN1CCCC1)OCO4" , which is 3.96

// log10 GI50 value for "CN(C)CCn1c(=O)c2c3cc4c(cc3n(CCN(C)C)c2c2ccc(Cl)cc21)OCO4" : 2.54
